# Assay Text: AGP1-GFP expression modulators, hit retest, confirmation, cell-based, flow cytometry, S. cerevisiae, cherry pick set 3 (AID 504334);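 further: median GFP fluorescence per well by flow cytometry over the all cells gate; ratio of sample to mean DMSO control signal so DMSO = 100% not 0%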
# Condition Context: S. cerevisiae AGP1-GFP strain, 3 h, at 10 µM, hits give high values
Outcome Measure: percent response vs DMSO (%)
Give bare numbers, in %.

Worked examples follow.
Compound	percent response vs DMSO / %
NC(=O)COc1cccc2cccnc12	98.1
Nc1[nH]c(=O)nc(Nc2ccccc2)c1N=O	101
CC(=O)NCCOc1cccc2cccnc12	101
CC1=CN2C(=N)/C(=C/c3ccc(C)o3)C(=O)N=C2S1	98.1
Cc1ccc2c(Cl)cc(Cl)c(OCC(=O)O)c2n1	109
CNc1cccc2c1C(=O)c1ccccc1C2=O	100

// each compound listed below needs its percent response vs DMSO
1. Cc1ccc2c(C)ccc(O)c2n1
2. COc1ccccc1-c1cc(C(F)(F)F)nc(S(C)(=O)=O)n1
3. Cn1c(NCCCO)nc2c(c1=O)C1(CCCCC1)Cc1ccccc1-2
4. COc1ccc(N/C(C)=C/C(=O)c2ccccc2)cc1
5. Cc1ccc(-c2cc(C(F)F)nc(S(C)(=O)=O)n2)cc1
6. C=CCNc1nc(N)c([N+](=O)[O-])c(Nc2ccccc2OC)n1

[102, 130, 104, 98.4, 110, 95.4]

// each compound listed below needs its percent response vs DMSO
1. CS(=O)(=O)c1nc(-c2ccc(F)cc2)cc(C(F)(F)F)n1
2. COc1ccc(OC)c2c(C)cc(C)nc12
3. Cc1cccc(C)c1Nc1ncnc(N)c1[N+](=O)[O-]
4. Oc1ccc(Cl)c2cccnc12
5. Cc1cccc(Nc2cc(=O)[nH]c(=O)[nH]2)c1C
6. C/C(=N\NC(=O)c1cccc2ccccc12)c1cccnc1
7. Cc1nc(Nc2ccc(Cl)cc2)c(C#N)c(=O)[nH]1

114
97.1
102
109
99.4
99.4
101

// each compound listed below needs its percent response vs DMSO
1. COC(=O)COc1c(Cl)cc(Cl)c2ccc(C)nc12
2. COc1ccc(N/C=C/C(=O)c2ccc(Cl)cc2)cc1
3. CCN(CC)c1ncnc2ccc(Br)cc12

1. 105
2. 98.1
3. 97.8

---

# Assay Text: AGP1-GFP expression modulators, hit retest, confirmation, cell-based, flow cytometry, S. cerevisiae, cherry pick set 3 (AID 504334)
# Condition Context: S. cerevisiae AGP1-GFP strain, 3 h, at 10 µM, hits give high values
Outcome Measure: percent response vs DMSO (%)
Answers are plain numbers, in %.

Molecule	percent response vs DMSO [%]
Cc1ccc(Nc2nc(N)[nH]c(=O)c2N=O)cc1	101
OCCNc1ncnc2ccc(Br)cc12	101
O=C(Nc1ccccc1Cl)ON=C1c2ccccc2-c2ccccc21	99.1

// each molecule listed below needs its percent response vs DMSO
1. COCCCNc1nc(N)c([N+](=O)[O-])c(Nc2ccccc2OC)n1
2. O=C(Nc1cccc(Cl)c1)ON=C1c2ccccc2-c2ccccc21
3. C/C(=C\C(=O)c1ccc(C)cc1)Nc1cccc(O)c1
4. CCCC(=O)Nn1cnc2c(c1=O)C1(CCCCC1)Cc1ccccc1-2
5. O=C(O)c1ccc2cccnc2c1O

103
99.1
101
102
99.8

---

# Assay Text: AGP1-GFP expression modulators, hit retest, confirmation, cell-based, flow cytometry, S. cerevisiae, cherry pick set 3 (AID 504334)
# Condition Context: S. cerevisiae AGP1-GFP strain, 3 h, at 10 µM, hits give high values
Kindly supply the reported percent response vs DMSO values for the records listed here.
Numbers only, in %.

Worked examples follow.
Molecule	Readout Unit	percent response vs DMSO
C/C(=C\C(=O)c1ccccc1)Nc1ccc(O)cc1	%	98.4
C=CCNc1ncnc2ccc(Br)cc12	%	101
O=C(Nc1ccc(-c2nc3ccccc3o2)cc1)c1cccnc1	%	100
CCCC(=O)Nn1cnc2c(c1=O)C1(CCCC1)Cc1ccccc1-2	%	101
Nc1ncnc(Nc2cc(Cl)cc(Cl)c2)c1[N+](=O)[O-]	%	98.8

// each molecule listed below needs its percent response vs DMSO
1. Cc1ccc(Nc2cc(=O)[nH]c(=O)[nH]2)cc1C
2. CCC(C)Nc1nc(N)c([N+](=O)[O-])c(Nc2ccccc2OC)n1 (configuration not stated)
3. CC(=O)Nc1ccc(-c2nc3cc(Cl)ccc3o2)cc1
4. CCCOCc1ccc(O)c2ncccc12
5. O=C(/C=C/Nc1cccc(O)c1)c1ccccc1

95.8
104
96.1
99.8
102

---

# Assay Text: AGP1-GFP expression modulators, hit retest, confirmation, cell-based, flow cytometry, S. cerevisiae, cherry pick set 3 (AID 504334);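 further: median GFP fluorescence per well by flow cytometry over the all cells gate; ratio of sample to mean DMSO control signal so DMSO = 100% not 0%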
# Condition Context: S. cerevisiae AGP1-GFP strain, 3 h, at 10 µM, hits give high values
Outcome Measure: percent response vs DMSO (%)
Numbers only, in %.

Worked examples follow.
Compound	percent response vs DMSO, %
CC1=CN2C(=N)/C(=C/c3ccc([N+](=O)[O-])o3)C(=O)N=C2S1	569
O=C(O)CCCCCNc1ncnc2ccc(Br)cc12	101
Brc1ccc2ncnc(NCc3ccccc3)c2c1	94.8

// each compound listed below needs its percent response vs DMSO
1. O=C(Nc1ccccc1)O/N=C1/CCCc2occc21
2. Cc1ccc(Nc2cc(=O)[nH]c(=O)[nH]2)cc1Cl
3. COc1ccccc1Nc1nc(NCCO)nc(N)c1[N+](=O)[O-]
4. C=CCNc1nc(N)c([N+](=O)[O-])c(Nc2cccc(Cl)c2)n1
5. OCc1ccnc2c(O)cccc12
6. COc1ccc(NC(=O)O/N=C2/CCCc3ccc(OC)cc32)cc1
7. COc1ccccc1-c1cc(C(F)(F)F)nc(S(=O)(=O)CCCC(=O)O)n1
8. CC(=O)C(Cl)C(=O)Nc1ccccc1 (configuration not stated)

1: 94.4; 2: 102; 3: 99.1; 4: 92.1; 5: 100; 6: 95.8; 7: 110; 8: 105

// each compound listed below needs its percent response vs DMSO
1. COC(=O)c1cc(=O)c2cccc(OC)c2[nH]1
2. CC(=O)C(CC(=O)N1CCCC1)C(=O)Nc1ccc(Cl)cc1 (configuration not stated)
3. Oc1c(Cl)cc(Cl)c2cccnc12
4. OCCN1CCN(c2ncnc3ccc(Br)cc23)CC1
5. O=C(Nc1cccc2ccccc12)ON=C1CCCCC1

99.4
100
98.8
99.8
99.8

I would be grateful if you could share the reported percent response vs DMSO for "COc1cc(OC)cc(C(=O)Nc2ccc(-c3nc4ccccc4o3)cc2)c1" .
99.1

---

# Assay Text: AGP1-GFP expression modulators, hit retest, confirmation, cell-based, flow cytometry, S. cerevisiae, cherry pick set 3 (AID 504334);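 further: median GFP fluorescence per well by flow cytometry over the all cells gate; ratio of sample to mean DMSO control signal so DMSO = 100% not 0%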
# Condition Context: S. cerevisiae AGP1-GFP strain, 3 h, at 10 µM, hits give high values
Outcome Measure: percent response vs DMSO (%)
One number for each entry, in %.

Worked examples follow.
Cpd Smiles	Quantitative Result
CC(=O)Nc1ccc(-c2nc3ccccc3o2)cc1	96.8
Nc1c(O)ccc2c1C(=O)c1ccccc1C2=O	110
O=C(Nc1nc(-c2ccccn2)cs1)c1ccccc1-n1cnnn1	100
CS(=O)(=O)Oc1ccc(Br)c2cccnc12	96.4
O=C(O)CCS(=O)(=O)c1nc(-c2cccs2)cc(C(F)(F)F)n1	111

// each compound listed below needs its percent response vs DMSO
1. COc1cccc2c(O)cc(=O)n(C)c12
2. O=c1cc(C(F)(F)F)[nH]c2c(OC(F)(F)F)cccc12
3. O=C1c2ccccc2C(=O)c2c1cccc2N(CCO)CCO
4. CC1=NNC(=O)/C1=C\c1cn(-c2ccccc2)nc1-c1ccc(F)cc1
5. CSc1nc(S(C)(=O)=O)nc2[nH]c(=O)[nH]c12
6. COc1cccc2c(Cl)c(CCCl)c(C)nc12
7. C/C(=N\NC(=O)c1ccccc1)c1ccccc1F

1: 99.1; 2: 99.4; 3: 98.8; 4: 108; 5: 103; 6: 99.8; 7: 105

// each compound listed below needs its percent response vs DMSO
1. Cc1cccc(Nc2cc(=O)[nH]c(=O)[nH]2)c1
2. NC(=O)c1ccnc2c(O)cccc12
3. C[n+]1cccc2cccc([O-])c21

1: 96.8; 2: 100; 3: 98.8

---

Kindly supply the reported percent response vs DMSO values for the records listed here.
# Assay Text: AGP1-GFP expression modulators, hit retest, confirmation, cell-based, flow cytometry, S. cerevisiae, cherry pick set 3 (AID 504334);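 further: median GFP fluorescence per well by flow cytometry over the all cells gate; ratio of sample to mean DMSO control signal so DMSO = 100% not 0%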
# Condition Context: S. cerevisiae AGP1-GFP strain, 3 h, at 10 µM, hits give high values
Numbers only, in %.

Cpd Smiles	Outcome Measure	Quantitative Result
O=C(Nc1ccccc1)ON=C1c2ccccc2-c2ccccc21	percent response vs DMSO	97.8
O=C(O)c1ccc(C=NNC(=O)c2cccc3ccccc23)cc1	percent response vs DMSO	107
C=CCNc1ncnc2ccccc12	percent response vs DMSO	102
COc1cc(=O)n(C)c2c(O)cccc12	percent response vs DMSO	98.1
CCc1sc(C(=O)Nc2nc(-c3ccccn3)cs2)cc1C	percent response vs DMSO	111
COc1cccc(N/C(C)=C/C(=O)c2ccc(Br)cc2)c1	percent response vs DMSO	101

Consider now this further compound.
I would be grateful if you could share the reported percent response vs DMSO for "Cc1cccc(N/C=C/C(=O)c2ccc(Cl)cc2)c1" .
95.4
